molecular target: Calpain-1 catalytic subunit (Sus scrofa); test: Inhibition of full length porcine Calpain-1 complex using (H2NeK(-FAM)-EVYGMMK(DABCYL)eOH) substrate by FRET assay; settings: read-out: IC50
Sequence (P35750 whole entry): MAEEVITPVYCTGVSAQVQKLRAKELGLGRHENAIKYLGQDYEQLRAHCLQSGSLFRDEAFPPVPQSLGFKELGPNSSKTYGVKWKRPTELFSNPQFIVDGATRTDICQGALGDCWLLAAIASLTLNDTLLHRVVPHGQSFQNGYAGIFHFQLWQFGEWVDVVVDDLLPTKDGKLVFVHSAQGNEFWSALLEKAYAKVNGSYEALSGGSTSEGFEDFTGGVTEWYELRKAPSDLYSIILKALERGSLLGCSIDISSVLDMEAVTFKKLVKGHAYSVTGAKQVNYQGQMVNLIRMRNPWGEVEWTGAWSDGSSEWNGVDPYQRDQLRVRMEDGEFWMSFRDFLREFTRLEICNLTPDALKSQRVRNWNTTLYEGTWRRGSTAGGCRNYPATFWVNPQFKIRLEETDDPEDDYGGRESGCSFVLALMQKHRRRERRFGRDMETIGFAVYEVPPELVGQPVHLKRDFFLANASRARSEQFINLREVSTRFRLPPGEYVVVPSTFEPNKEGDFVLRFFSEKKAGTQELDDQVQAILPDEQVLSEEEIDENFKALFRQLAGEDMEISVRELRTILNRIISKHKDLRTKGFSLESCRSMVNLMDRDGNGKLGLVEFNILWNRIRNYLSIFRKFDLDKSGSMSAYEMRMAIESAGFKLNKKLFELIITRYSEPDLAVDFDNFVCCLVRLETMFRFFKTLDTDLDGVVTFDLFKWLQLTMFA
pIC50: −log10 of the molar value.
quantity-kind: pIC50

A = O=C(CSc1nnc2ccc(-c3ccccn3)nn12)Nc1cccc(C(F)(F)F)c1
B = CC(C)(C)NC(=O)c1ccc(Oc2cc(F)c(CC(=O)O)cc2Cl)c(NS(=O)(=O)c2ccc(C3CC3)cc2Cl)c1 [VIDUPIPRANT]
I would appreciate it if you could say which entry, A or B , has the lower pIC50 value. Give the label of your selection.
A

###

biological target: Calpain-1 catalytic subunit (Sus scrofa); experiment: Inhibition of full length porcine Calpain-1 complex using (H2NeK(-FAM)-EVYGMMK(DABCYL)eOH) substrate by FRET assay
quantity-kind: IC50

Answered examples (4):
{"columns": ["molecule", "IC50"],
 "data": [
  ["O=C1CCCN1c1cccc(NS(=O)(=O)c2cccc(C(F)(F)F)c2)c1", "Not Active"],
  ["NC(=O)c1cccc(NS(=O)(=O)c2cccc(C(F)(F)F)c2)c1", "Not Active"],
  ["FC(F)(F)c1cccc(CSc2nnc3ccc(-c4ccccn4)nn23)c1", "Not Active"],
  ["O=C(NC1CCC(O)CC1)c1ccc(S(=O)(=O)Nc2cccc(C(F)(F)F)c2)cc1 (stereo unspecified)", "Not Active"]
]}

Consider the molecule "COCCOc1nc(-c2cccc(C(F)(F)F)c2)n(-c2ccc(NC(=O)C(C)C)cc2)n1" and give its measured IC50.
Not Active

If you can, please state the reported IC50 value of "COCCOc1nc(-c2ccc(OC)cc2)n(-c2cccc(NC(=O)c3ccc(C)c(C(F)(F)F)c3)c2)n1" .
Not Active

###

target: Calpain-1 catalytic subunit (Homo sapiens) (UniProt P07384); assay: Inhibition of human Calpain-1 active site domain using (H2NeK(-FAM)-EVYGMMK(DABCYL)eOH) substrate by FRET assay; conditions: read-out: IC50
quantity-kind: IC50 (µM)

A = O=C(O)c1cc(NS(=O)(=O)c2ccc(F)cc2)cnc1N1CCCCCC1
B = O=C(O)/C(S)=C/c1ccc(I)cc1
For A and B , which recorded IC50 is lower? I would appreciate it if you answered with the label of your choice.
B

###

molecular target: Calpain small subunit 1 (Homo sapiens); assay: Binding affinity to human Calpain-1 PEF(S) domain at 0.5 to 500 uM expressed in Escherichia coli BL21-CodonPlus (DE3) RP cells incubated for 5 mins by TNS displacement assay
The source made the active and inactive calls. The calls are words filed in the database; no cut-off is given here.
Bench note: report the call from yes (1) (active), no (0) (inactive)

{"columns": ["compound", "assigned-label"],
 "data": [
  ["CC(C)(C)NC(=O)c1ccc(Oc2cc(F)c(CC(=O)O)cc2Cl)c(NS(=O)(=O)c2ccc(C3CC3)cc2Cl)c1 [VIDUPIPRANT]", "yes (1)"],
  ["O=C(O)/C(S)=C/c1ccc(I)cc1", "yes (1)"],
  ["NC(=O)c1cccc(NS(=O)(=O)c2cccc(C(F)(F)F)c2)c1", "yes (1)"],
  ["O=C(NC1CCC(O)CC1)c1ccc(S(=O)(=O)Nc2cccc(C(F)(F)F)c2)cc1 (stereo unspecified)", "yes (1)"],
  ["O=C(O)c1cc(NS(=O)(=O)c2ccc(F)cc2)cnc1N1CCCCCC1", "yes (1)"]
]}

Consider the additional compound presented here.
Please state the recorded outcome for this compound: "O=C1CCCN1c1cccc(NS(=O)(=O)c2cccc(C(F)(F)F)c2)c1"
no (0)

Origin of measurements: ChEMBL document CHEMBL4261589
